B1: OR4K15 (parent)
chain: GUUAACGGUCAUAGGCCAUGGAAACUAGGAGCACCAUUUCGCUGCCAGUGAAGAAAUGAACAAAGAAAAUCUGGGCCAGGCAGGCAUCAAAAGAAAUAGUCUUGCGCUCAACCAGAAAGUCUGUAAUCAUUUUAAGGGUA

- Variants of: B1
- assay_explanation: self-cleavage, relative activity (ratio to wild type); higher = more cleavage; in vitro, sequencing; the parent is a self-cleaving ribozyme
readout_type: self-cleavage
Lab note: write the figure by itself, no unit.

Solved cases (5 shown):
U12C A82U | 0.24
U57C U124C | 0.59
U139C | 1.04
U49C A86G | 1.03
A11U A110U | 1.19

Look up and state reported self-cleavage for A60G A78C
0.17

Look up and state reported self-cleavage for G83A G93U
2.03

Look up and state reported self-cleavage for A54U A134G
1.32
